Each item that follows carries a reported pIC50.
Test system: BV-2
Experiment: Inhibition of LPS-induced nitric oxide production in mouse BV2 cells pretreated for 30 mins followed by LPS-stimulation after 24 hrs by Griess assay
Format: functional, cell-based
API: returns pIC50 as number; meaning -log10 of concentration in mol/L.

Past entries and their recorded results:
1) COc1cc(/C=C/C(=O)CC(=O)/C=C/c2ccc(O)c(OC)c2)ccc1O [CURCUMIN] ... 5.35
2) C=C1CO[C@@H]2C=C3CCC[C@H](C)[C@@]3(C)C[C@@]12O ... 4.66

Next item in the queue.
GET /values?readout=pIC50&item= C=C(C)[C@@H]1Cc2cc(CO)ccc2O1
4.47
